Below: a set of entries, each annotated with reported Kd.
experimental.target: T1, recombinant human IL6R-his (human, UniProt P08887 20-365)
T1 construct: In house made; the entry includes the C-terminal His tag; also called human IL6R-his protein
T1 sequence: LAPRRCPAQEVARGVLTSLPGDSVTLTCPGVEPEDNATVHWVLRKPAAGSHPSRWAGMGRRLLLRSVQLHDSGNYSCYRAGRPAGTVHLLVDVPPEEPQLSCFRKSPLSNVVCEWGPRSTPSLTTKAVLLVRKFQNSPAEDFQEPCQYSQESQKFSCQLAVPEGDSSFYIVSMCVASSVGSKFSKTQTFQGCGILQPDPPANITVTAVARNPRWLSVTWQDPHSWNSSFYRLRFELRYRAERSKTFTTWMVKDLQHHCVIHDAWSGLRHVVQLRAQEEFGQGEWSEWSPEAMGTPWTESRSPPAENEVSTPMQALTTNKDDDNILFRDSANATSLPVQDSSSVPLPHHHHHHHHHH
test.name: SPR Biacore T200; mAb captured by anti-mouse IgG on CM5, antigen in flow, 1:1 fit
State just the number; it will be interpreted in nM.

Look over these answered cases.
mouse anti-IL6R monoclonal antibody 1A3 (antibody, V domains shown, Mouse hybridoma mAb purified on Protein A) VH: QVQLQQPGAELVKPGASVKLSCKASGYTFTSYWMHWVKQRPAQGLEWIGEINPSNGRTNFNEKFKTKATLTVDKSSNTAYMQLSSLTSEDSAVYSCLRLNTHYVFDYWGQGTTLTVSS VL: EIVLTQSPTTMAASPGEKITITCSASSSISSNYLHWYQQKPGFSPKLLISRTSNLASGVPTRFSGSGSGTSYSLTIGTMEAGDVATYYCQQGSGIPFTFGSGTKLEIK	0.293
mouse anti-IL6R monoclonal antibody 1B5 (antibody, V domains shown, Mouse hybridoma mAb) VH: QVQLQQPGAELVKPGASVKLSCKASGYTFTSYWMHWVKQRPGQGLEWIGEINPSNGRTNYNENFKSKATLTVDKSSSTAYMQLSSLTSEDSAVYYCARLNTHYVFDYWGQGTTLTVSS VL: EIVLTQSPTILAASPGEKITFTCSVSSSISSNYLHWYQQKPGFSPKLLIYRTSNLASGVPARFSGSGSGTSYSLTIGTMEAEDVATYYCQQGSGIPFTFGSGTKLEIK	0.476
mouse anti-IL6R monoclonal antibody 1D4 (antibody, V domains shown, Mouse hybridoma mAb) VH: QVQLQQPGAELVKPGASVKLSCKASGYTFTSYWMHWVKVRPGQGLEWIGEINPTNGRTNYNEDFKSKATLTVNSSSSTAYMQLSSLTSEDSAVYYCARLNTHYVFDYWGQGTTLTVSS VL: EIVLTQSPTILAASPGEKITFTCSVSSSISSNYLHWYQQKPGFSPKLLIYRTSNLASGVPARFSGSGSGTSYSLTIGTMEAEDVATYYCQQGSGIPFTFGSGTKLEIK	0.628

Here is another binder to look at.
Entry under review: mouse anti-IL6R monoclonal antibody 1G1 (antibody, V domains shown, Mouse hybridoma mAb) VH: QVQLQQPGAELVKPGASVKLSCKASGYTFTSYWMHWVKVRPGQGLEWIGEINPTNGRTNYNEDFKSKATLTVESSSSTAYMQFSSLTSEDSAVYYCARLNTHYVFDYWGQGTTLTVSS VL: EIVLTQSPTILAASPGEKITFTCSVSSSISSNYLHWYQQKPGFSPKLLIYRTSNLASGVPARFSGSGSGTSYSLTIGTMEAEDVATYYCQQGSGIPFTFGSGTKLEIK . Reported Kd?
0.647
